Species on record: Rattus norvegicus
Assay: DrugMatrix - Regimen: Daily Repeat
Type: toxicity, organism-based, Sprague-Dawley
Design: regimen Daily Repeat, gender Male, age 6-8 weeks
Settings: in vivo, po, 0 mg/kg, 72 h, tissue Blood, route oral GAVAGE, dose level Control, time 3 day, […]
Please go through the items and note down their MONOCYTE.
Numbers only, in %.

# annotated cases, reported MONOCYTE shown
Recorded MONOCYTE (compound CCCC[C@@H](CC)COC(=O)c1ccccc1C(=O)OC[C@@H](CC)CCCC [BIS(2-ETHYLHEXYL)PHTHALATE] ): 0.67

Recorded MONOCYTE (compound C=CCN [ALLYLAMINE] ): 1.8

Recorded MONOCYTE (compound c1ccc2[nH]c(-c3cscn3)nc2c1 [THIABENDAZOLE] ): 0.67

Batch request: MONOCYTE per item, same order as input.
1. Oc1c(Cl)cc(Cl)cc1Sc1cc(Cl)cc(Cl)c1O [BITHIONOL]
2. CC1=C(/C=C/C(C)=C/C=C/C(C)=C\C(=O)O)C(C)(C)CCC1 [ISOTRETINOIN]

1: 0.83; 2: 1.33

Recorded MONOCYTE (compound CC(=O)[C@H]1CC[C@H]2[C@@H]3CCC4=CC(=O)CC[C@]4(C)[C@H]3CC[C@]12C [PROGESTERONE] ): 2.5

Hey, just so you know, these numbers are from ChEMBL document CHEMBL3885881.
